Origin of the recorded values: PubChem BioAssay (Tox21)

test: qHTS assay to identify small molecule antagonists of the retinoid-related orphan receptor gamma (ROR-gamma) signaling pathway - cell viability counter screen (AID 1159520); settings: Tet-on RORgamma CHO cells viability, ATP luminescence, 16 h; series mostly up to 92.4 µM; note: nearly all actives have a fitted effect of over 50% in size
Inconclusive results are not listed. Activity calls are given as the source filed them. Calls come from the whole dose curve; as a rule, active = well fitted cell-killing curve with a large enough effect in the repeat runs; inconclusive = weak or mixed curves, or effect the other way; inactive = no such curve, though single readings can be large or run the other way.
Please answer using one outcome listed in active, inactive

QUERY: Which outcome did this test record for the compound COC1CC(=C(c2cccs2)c2cccs2)C[N+](C)(C)C1 (stereo not drawn) ?
RESULT: inactive

QUERY: Check the results log: what was the call for CC(=O)OC(c1ccccc1)C(Cl)(Cl)Cl (stereo not drawn) ?
RESULT: inactive

QUERY: Outcome logged for C[Si](Cn1cncn1)(c1ccc(F)cc1)c1ccc(F)cc1 in this assay:
RESULT: inactive

QUERY: Dear all, I need the recorded test outcome for CN[C@@H](C)[C@H](O)c1ccccc1 , thank you.
RESULT: inactive

QUERY: Identify the outcome logged in this assay for the compound shown: CN(C1CCCCC1)C1CCCCC1
RESULT: inactive

QUERY: Record lookup: outcome of this test for CCCCCCCCCCCC[N+](C)(C)CCOc1ccccc1 ?
RESULT: active

QUERY: Could you check what this test reported for C=CCc1ccccc1O ?
RESULT: inactive

QUERY: Hi, sorry to bother you, what did the test record for C=CCN1C[C@H](C)N([C@H](c2ccc(C(=O)N(CC)CC)cc2)c2cccc(OC)c2)C[C@H]1C ?
RESULT: inactive

QUERY: Assay outcome for Oc1cccc(Cl)c1 : what was it?
RESULT: inactive

QUERY: What is the recorded call for this compound in the test? C=CCOCC1CO1 (stereo not drawn)
RESULT: inactive

QUERY: Dear colleague, could you share the recorded outcome for CC(C)(C)c1ccc(CCOc2ncnc3ccccc23)cc1 when you have a moment?
RESULT: inactive

QUERY: Field: outcome | Entry: CCCN(CCC)C(=O)Cc1c(-c2ccc(Cl)cc2)nc2ccc(Cl)cn12
RESULT: inactive

QUERY: Which outcome was assigned to NNCCO in this test?
RESULT: inactive

====

target: Acetylcholinesterase (Homo sapiens); assay: Acetylcholinesterase (AChE) small molecule antagonists: colormetric cell-based qHTS assay (AID 1347395); details: SH-SY5Y cells AChE activity, colorimetric (Ellman); series mostly up to 115 µM; note: nearly all actives have a fitted effect of over 30% in size
Results filed as inconclusive are left out. The source made the active and inactive calls. The call rests on the fitted dose curve.
Respond using exactly one of the listed classes: active, inactive

QUERY: Just curious, what result did Nc1ccc2c(c1)Cc1ccccc1-2 get here?
RESULT: inactive

QUERY: Fill in: this test's call for OCC1CO1 (stereo not drawn) is ___
RESULT: inactive

QUERY: Tell me the assay call for CCC1(CCC(C)C)C(=O)NC(=O)NC1=O please.
RESULT: inactive

QUERY: Please indicate how the test categorized O=C([O-])c1ccccn1.O=C([O-])c1ccccn1.O=C([O-])c1ccccn1.[Cr+3] .
RESULT: inactive

QUERY: Fill in: this test's call for CCSCc1ccccc1OC(=O)NC is ___
RESULT: active

QUERY: For O=CC=O , which call appears in the assay record?
RESULT: inactive

QUERY: GET /call?item= COc1cc(C[C@@H](C)N)c(OC)cc1Br returns the recorded outcome of this test.
RESULT: inactive

QUERY: Lab log entry: COc1cc(CC#N)cc(OC)c1OC — outcome as called in the assay?
RESULT: inactive

QUERY: For this compound, state the assay outcome: Cc1nc(N(C)C)nc(OC(=O)N(C)C)c1C
RESULT: active

QUERY: // param item: C[C@]12C=CC3=C4CCC(=O)C=C4CC[C@H]3[C@@H]1CC[C@@H]2O ; yields the recorded call
RESULT: inactive

QUERY: Short answer needed: outcome of this test for CCCC[N+]1(C)[C@@H]2CC(OC(=O)[C@H](CO)c3ccccc3)C[C@H]1[C@@H]1O[C@@H]12 (stereo partly drawn) ?
RESULT: inactive

QUERY: Recorded call for CCCCCCCCP(=O)(O)O ?
RESULT: inactive

QUERY: Which outcome was entered for the compound CC[N+]1(CCOC(=O)C(O)(c2ccccc2)c2ccccc2)CCCCC1 in this test?
RESULT: inactive
